Collected LAP4-GFP fluorescence (kMESF) values appear next to each entry.
# assay-overview: LAP4-GFP modulation potency in yeast, dose response, cell-based, MLPCN hits, flow cytometry (AID 2745);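 note: yeast exposed to compound for three hours at 30 degrees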
# condition-label: S. cerevisiae LAP4-GFP reporter, flow cytometry fluorescence; at 33 µM (top of the series)
Active and inactive are the calls of the source. The rule behind the calls is not given here.

Consider the following illustrative entries.
Using the record for COc1ccc(C=C2C(=O)c3ccccc3C2=O)cc1O , state its measured LAP4-GFP fluorescence (kMESF).
3.24 kMESF (inactive)

Provide one value: measured LAP4-GFP fluorescence (kMESF) of O=C(Oc1cccc2cccnc12)c1ccc(Br)o1
3.74 kMESF (inactive)

For Oc1c(Br)cc(Br)cc1C=Nc1ccc2[nH]ncc2c1 , write its LAP4-GFP fluorescence (kMESF).
13.1 kMESF (inactive)

***
Report measured LAP4-GFP fluorescence (kMESF); entry is Cc1nn2c(NCc3ccccn3)c3c(nc2c1-c1ccccc1)CCC3
7.76 kMESF (inactive)

Assign LAP4-GFP fluorescence (kMESF) to the following record: Oc1c(CN2CCN(c3ccccc3)CC2)cc(Br)c2cccnc12
20.9 kMESF (inactive)

Read off the recorded LAP4-GFP fluorescence (kMESF) for COc1ccc2c(c1)S/C(=C\C(=O)c1ccncc1)N2C
4.85 kMESF (inactive)

----------
# assay-overview: LAP4-GFP modulation potency in yeast, dose response, cell-based, MLPCN hits, flow cytometry (AID 2745);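 note: yeast exposed to compound for three hours at 30 degrees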
# condition-label: S. cerevisiae LAP4-GFP reporter, flow cytometry fluorescence; at 33 µM (top of the series)
Active and inactive are the calls of the source. The rule behind the calls is not given here.
quantity: LAP4-GFP fluorescence (kMESF)

Examples from the recorded data:
Quickly give me recorded LAP4-GFP fluorescence (kMESF) for CN(C)c1ccc(N=Cc2nc(-c3ccccc3)oc2OC(=O)c2cccc(Cl)c2)cc1
3.99 kMESF (inactive)

Read the entry O=C(/C=C/Sc1ncn[nH]1)c1ccc(Cl)cc1 and write its reported LAP4-GFP fluorescence (kMESF).
15.9 kMESF (inactive)

Tell me LAP4-GFP fluorescence (kMESF) reported for CCc1cccc2sc(N3CCN(C(=O)c4ccc([N+](=O)[O-])o4)CC3)nc12
-0.3 kMESF (inactive)

Give the reported value of LAP4-GFP fluorescence (kMESF) for this record: Oc1ccc2ccccc2c1/C=N/Nc1nnc(-c2ncc[nH]2)c2ccccc12
-7.45 kMESF (inactive)

Item O=C1/C(=C\c2ccc(O)c(O)c2)SC(=S)N1Cc1ccccc1 : provide LAP4-GFP fluorescence (kMESF)
-9.95 kMESF (inactive)

# return recorded LAP4-GFP fluorescence (kMESF) for input O=c1c2cc(Cl)ccc2nc(-c2ccc([N+](=O)[O-])cc2)n1O
5.26 kMESF (inactive)

Supply recorded LAP4-GFP fluorescence (kMESF) for O=C(Nc1nnc(-c2ccc(F)cc2)o1)c1cc(Cl)sc1Cl here.
6.71 kMESF (inactive)

Entry Cc1ccc(NC(=O)c2cc(N3C(=O)C=CC3=O)ccc2N2CCOCC2)cc1Cl needs its LAP4-GFP fluorescence (kMESF) filled in; supply it.
10.5 kMESF (inactive)

Read off the recorded LAP4-GFP fluorescence (kMESF) for O=C1C=CC(=O)N1c1ccc(Sc2ccc([N+](=O)[O-])cc2)cc1
5.47 kMESF (inactive)

Look up and state reported LAP4-GFP fluorescence (kMESF) for CCN(CC)C(=S)SSC(=S)N(CC)CC
20.4 kMESF (inactive)

Further cases:
Given O=C(Nc1cccc(-c2csc(Nc3ccccc3)n2)c1)c1ccccc1 , respond with its LAP4-GFP fluorescence (kMESF).
4.18 kMESF (inactive)
